# method.description: Human HepG2 cell viability assay in 384 well format
# Assay type: toxicity, cell-based
# Design: dose 125 nL, time 70.5 hour; concentration not given beside the values
# cond: HepG2 cells, read-out: Inhibition
Kindly state cytotoxicity at 70.5 h for each of the entries shown.
Record the value in %, omitting the unit from your answer.

Ask: Please give the measured cytotoxicity at 70.5 h for this molecule: CCc1ncc2c(n1)CN(Cc1nc(-c3ccsc3)oc1C)CC2
Reply: 1.83

Ask: And the next one, CNC(=O)NC(=O)CN1CCC(c2cccc(F)c2)C1 (stereo unspecified) ?
Reply: -4.22

Ask: Check NS(=O)(=O)c1ccc(F)c(C(=O)NCCSC2CCCCC2)c1 too.
Reply: -9.09

Ask: // same read-out, input: CC(C)CN(C)Cc1nc2c(cnn2C)c(=O)[nH]1
Reply: 12.1

Ask: What do we get for CN(Cc1cccnc1)C1CC2(CCN(Cc3cccnc3)CC2)C1 ?
Reply: -13.8

Ask: One more molecule: OC(CN1CCOCC1)CN1CCc2c(ncn2C2CC2)C1 (stereo unspecified)
Reply: 30.4

* * *

# method.description: Human HepG2 cell viability assay in 384 well format
# Assay type: toxicity, cell-based
# Design: dose 125 nL, time 70.5 hour; concentration not given beside the values
# cond: HepG2 cells, read-out: Inhibition
experimental.readout: cytotoxicity at 70.5 h (%)
Just the number please, in %, no unit attached.

Ask: Can you share its cytotoxicity at 70.5 h? I mean this molecule: O=C(C1CC=CC1)N1CCC2(CCN(Cc3ccccn3)C2=O)C1 (stereo unspecified)
Reply: 5.7

Ask: Next molecule up: CCOc1ccccc1OCCN(C)Cc1nccn1C
Reply: -5.37

Ask: Next entry: CC(C)c1cc(C(=O)N[C@H]2CN(C3CCOCC3)C[C@@H]2C2CC2)no1
Reply: -6.62

Ask: Same thing, different molecule: FC(F)(F)c1nc(NC2CCCCC2)c2ccccc2n1
Reply: -10.5

Ask: Try the molecule O=C(c1cnccn1)N1CCO[C@H]2[C@H](OCc3cccnc3)CC[C@@H]21
Reply: -6.93

Ask: Likewise for CC1=Nc2c(c(=O)[nH]n2C2CCCC2)C(c2cccc(O)c2)S1 (stereo unspecified) ?
Reply: 3.38

Ask: Okay, and CN(Cc1cccs1)C(=O)CN1CCCC1Cn1cncn1 (stereo unspecified) ?
Reply: 2.88

Ask: Now consider Cc1ccc2c(c1)[C@@H](CC(=O)N1CCN(C)CC1)CCO2 and answer again.
Reply: 3.15

Ask: Follow-up entry: Cc1cc(C)c2c(N3CCC(C(=O)N4CCCC4)CC3)ncnc2n1
Reply: -7.41

Ask: Now the same for CN([C@@H]1CC[C@@H](N2CCOCC2)[C@@H]1O)S(=O)(=O)c1ccccc1
Reply: -10.3

Ask: Can you check COCCN1CCOCC12CCN(C(=O)Cc1cccs1)CC2 next?
Reply: -6.94

* * *

# method.description: Human HepG2 cell viability assay in 384 well format
# Format: toxicity, cell-based
# Design: dose 125 nL, time 70.5 hour; concentration not given beside the values
# cond: HepG2 cells, read-out: Inhibition
Can you tell me cytotoxicity at 70.5 h for the items I'm about to list?
All answers are understood in %, so give the number only.

Ask: # input molecule: CN1CCCC(CCCc2cccnc2)(C(N)=O)C1 (stereo not drawn) ; wanted: its cytotoxicity at 70.5 h
Reply: -3.41

Ask: Try this molecule next: Cc1cc(N(C)CC2COc3ccccc3O2)nc(N)n1 (stereo not drawn)
Reply: -5.43

Ask: Similarly, COc1cc(C(=O)NCc2cc(N3CCOCC3)ncn2)ccn1 ?
Reply: 20.4

Ask: Likewise for Cc1nc2c(c(N3CC=CC3)n1)CCN(Cc1ccoc1)CC2 ?
Reply: -2.75

Ask: Next molecule: CN(Cc1cccnc1)[C@@H]1CN(c2ncc(F)cn2)[C@@H]2CCCO[C@H]12
Reply: -11.8

Ask: Similarly, CC1(NC(=O)Cc2csc(C(C)(C)C)n2)CCS(=O)(=O)C1 (stereo not drawn) ?
Reply: 18.9

Ask: Subsequent entry: Cc1cccc(CN2CCC3(CC2)NC(=O)CC3c2ccccc2)n1 (stereo not drawn)
Reply: -7.81

Ask: Repeat for the following molecule: O[C@@]1(CNCC2(Cn3ccnc3)CC2)CCCN2CCCC[C@@H]21
Reply: -13.1

Ask: Same lookup for CNC(=O)[C@@H]1C[C@@H](N)CN1c1nc(N2CCCC2)nc(C)c1C , please.
Reply: -10.2

Ask: Please answer likewise for Clc1cc(Cl)cc(OCCN2CCC(n3cncn3)CC2)c1
Reply: -0.108

Ask: What about O=C(CC1CC1)N1CCCC2(CCC(=O)N2CC2CC2)CC1 (stereo not drawn) ?
Reply: -8.2

Ask: Also Cc1nn(C)c(N(C)C)c1CNCCC(=O)NC1CCCCC1 ?
Reply: -0.221

Ask: Follow-up item: CCCc1ccc2oc(C(=O)N3CCCN(C)CC3)c(C)c2c1
Reply: -2.52

Ask: Input O=C(c1ccnnc1)N1CCO[C@H]2[C@H](Oc3cccnc3)CC[C@@H]21
Reply: -13.8

Ask: Try this molecule next: CCOc1cc2c(cc1CN1CCC3(CCCNC3=O)C1)CCC2 (stereo not drawn)
Reply: 30

Ask: Repeat with Cc1nn(C)c(C)c1CC(=O)N1CCCC1Cn1cccn1 (stereo not drawn)
Reply: -5

Ask: Repeat for the following molecule: Cc1cccc(CN2CC3(CCN(S(=O)(=O)C4CC4)CC3)OCC2=O)n1
Reply: -0.285

Ask: Cool, now CN(Cc1ccc(F)cc1)Cc1cc2c(cc1Br)OCCO2
Reply: -8.04

Ask: Next up: CN(C)CCN(Cc1cccnc1)C(=O)c1ccn(-c2ccccc2)n1
Reply: -3.54

Ask: What would you report for O=C1NCCCCC1Sc1nnc(C2CC2)n1C1CC1 (stereo not drawn) ?
Reply: -5.95

Ask: Check CC(=O)c1c(C)nn(CC(=O)N2Cc3cnc(C(C)(C)C)nc3C2)c1C too.
Reply: -5.26

Ask: Next molecule: CS(=O)(=O)Cc1nc(CN2CC=C(c3ccccc3)CC2)cs1
Reply: -10.5

Ask: Now this one: CCn1ccc(NS(=O)(=O)c2cccc(CSC)c2)n1
Reply: 3.12

* * *

# method.description: Human HepG2 cell viability assay in 384 well format
# Format: toxicity, cell-based
# Set-up: dose 125 nL, time 70.5 hour; concentration not given beside the values
# cond: HepG2 cells, read-out: Inhibition
experimental.readout: cytotoxicity at 70.5 h (%)
Give the value, in units of %, as a plain number.

Ask: Which cytotoxicity at 70.5 h is listed for CCCN1CCN(C(=O)c2cccnc2)CC1 ?
Reply: -14.6

Ask: Continue with COCCCN1CCC(CNc2nccc(-c3cnn(C)c3)n2)C1 (centres undefined)
Reply: -6.55

Ask: Ok, now CC1CCC(O)(CN2CCN(CCNC(=O)C3CCC3)CC2)CC1 (centres undefined)
Reply: -14.6

Ask: Further, for O=C(NC1CC1)[C@H]1CC[C@@H]2[C@@H](CCN2c2ncc(F)cn2)O1 ?
Reply: -11.8

Ask: Then this compound: O=C(NCC1CC1)[C@H]1CN(Cc2nccs2)C[C@H]2OCC[C@@H]12
Reply: -9.38

Ask: And for COc1ccc(Cc2ncc3c(n2)CN(C(=O)CN(C)C)C3)cc1 ?
Reply: -8

Ask: Ok, now Cc1cnc(N2C[C@@H]3CN(Cc4ccco4)CCC[C@]3(C(=O)O)C2)nc1
Reply: -5.9

Ask: Next entry: CN1CCN(Cc2noc(-c3cc(-c4ccc(F)cc4)n[nH]3)n2)CC1
Reply: 31.6

Ask: Now consider O=C(NCCNc1ccccn1)NC1CCOC2(CCCCC2)C1 (centres undefined) and answer again.
Reply: 3.54

Ask: Same question, COc1cc(N2CC[C@H](O)[C@@H]2Cc2ccccc2)ncn1 this time
Reply: 16.6

Ask: Consider next the compound CNC(=O)c1cnn2c(C3CCCN3)ccnc12 (centres undefined) in the same way.
Reply: 6.37

Ask: Follow-up item: COc1ccc(F)cc1S(=O)(=O)NCCn1cnc(C)cc1=O
Reply: -12.5

Ask: What about COCCC(=O)N[C@H]1CC[C@H](Nc2nccc(-c3ccncc3)n2)C1 ?
Reply: -6.41

Ask: Same question, Nc1cc2c(nn1)CCN(C(=O)CC1CCCCC1)C2 this time
Reply: -8.85

Ask: Another compound to look at: O=C(c1cccn1Cc1cccs1)N1CCC(C(=O)N2CCCC2)CC1
Reply: -5.45

Ask: Now consider O=C(Cc1ccccn1)N1CCc2ncnc(N3CCCC3)c2CC1 and answer again.
Reply: -0.341

Ask: Try this compound too: CNc1cc(CNC(=O)c2ccncc2)nc(-c2ccncc2)n1
Reply: -2.12

Ask: One more compound: Cc1cnn(CC(C)NCC(=O)NCCc2cccs2)c1 (centres undefined)
Reply: 10.8

Ask: Follow-up item: Cc1ccc(CNCc2c(C(C)C)nn(C)c2N2CCOCC2)s1
Reply: -19.6

Ask: Then this compound: CC(C)Cn1cncc1-c1nc2c([nH]1)CCCNC2=O
Reply: -6.28

Ask: O=C(CCNC(=O)NC1CC1)NCc1ccccc1 , same question.
Reply: -6.54

Ask: Subsequent entry: Cn1cc(C(=O)NCc2cn3c(n2)CN(Cc2ccncc2)CC3)cn1
Reply: -7.44

Ask: Record: CCN(Cc1nccn1C)C(=O)c1ccc(NCc2cnn(C)c2)nc1
Reply: -3.96

Ask: Repeat with CC(=O)Nc1ccc(-c2ccccc2CCN)cc1
Reply: -4.46
